target: human CYP11B2 (Homo sapiens (Human), UniProt P19099); test: Inhibitory effect on hCYP11B2 (aldosterone production by mitochondrial fraction of V79 cells stably expressing human CYP11B2, HTRF); details: 0.5 μmol/L deoxycorticosterone, 150 μmol/L NADPH, 1.5-2 hours at room temperature
Sequence (P19099 25-503): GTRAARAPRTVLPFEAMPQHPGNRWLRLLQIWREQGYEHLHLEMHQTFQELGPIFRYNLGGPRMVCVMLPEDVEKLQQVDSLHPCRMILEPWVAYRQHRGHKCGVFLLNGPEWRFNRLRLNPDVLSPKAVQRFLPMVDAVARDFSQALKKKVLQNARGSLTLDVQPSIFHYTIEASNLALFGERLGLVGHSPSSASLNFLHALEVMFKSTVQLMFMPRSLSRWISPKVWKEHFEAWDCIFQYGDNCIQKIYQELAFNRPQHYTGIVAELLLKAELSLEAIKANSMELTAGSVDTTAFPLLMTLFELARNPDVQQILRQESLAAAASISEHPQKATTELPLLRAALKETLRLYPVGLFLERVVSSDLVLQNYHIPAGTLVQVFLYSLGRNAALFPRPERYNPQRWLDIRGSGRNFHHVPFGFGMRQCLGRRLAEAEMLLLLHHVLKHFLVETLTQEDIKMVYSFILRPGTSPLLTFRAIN
pIC50: −log10 of the molar value.
result-type: pIC50

Here is how some compounds turned out for pIC50.
compound: O=C(CN1CCN(c2nncc(-c3ccc(Cl)cc3)n2)CC1)NC1CCS(=O)(=O)CC1 [Example 27]
measured-target: human CYP11B2 (Homo sapiens (Human), UniProt P19099)
measured-result: 7.89
--
compound: Cc1ccccc1-c1cnnc(N2CCC(CCCO)CC2)n1 [Example 183]
measured-target: human CYP11B2 (Homo sapiens (Human), UniProt P19099)
measured-result: 9.15
--
compound: CNC(=O)CN1CCC(NC(=O)CN2CCN(c3nncc(-c4ccc(F)cc4)n3)CC2)CC1 [Example 44]
measured-target: human CYP11B2 (Homo sapiens (Human), UniProt P19099)
measured-result: 7.77

(A) CN1CCO[C@@H](CNC(=O)CN2CCN(c3nncc(-c4ccc(F)cc4)n3)CC2)C1 [Example 159a]
(B) CC(C)NC(=O)CN1CCN(c2nncc(-c3ccc4ncsc4c3)n2)CC1 [Example 220]
(C) CC(C)NC(=O)CN1CCN(c2nncc(-c3ccc4c(c3)CCO4)n2)CC1 [Example 219]
Order the entries by their reported pIC50, beginning at the minimum. Response field: labels, in requested order.
B, A, C
